Experiment: soluble on expression in E. coli; label from the status in PepcDB or PDB records
Property Label: soluble on expression in E. coli

>>> test_result("MEPHSLRYNLTVLSWDGSVQSGFLTEVHLDGQPFLRCDRQKCRAKPQGQWAEDVLGNKTWDRETRDLTGNGKDLRMTLAHIKDQKEGLHSLQEIRVCEIHEDNSTRSSQHFYYDGELFLSQNLETKEWTMPQSSRAQTLAMNVRNFLKEDAMKTKTHYHAMHADCLQELRRYLKSGVVLRRTVPPMVNVTRSEASEGNITVTCRASGFYPWNITLSWRQDGVSLSHDTQQWGDVLPDGNGTYQTWVATRICQGEEQRFTCYMEHSGNHSTHPVPS")
"soluble"
>>> test_result("SKVFNLDRGNTLSVSLFSGVTNSKELLNSMLDGSLKLEVSFLNASLIPGIFPLLAAAQKALISKSRDSLSTRTLHSELVYNYSGSKHITESLKRCGISENTTYILAARFNASPVEMEEVAKLINGKEIDLEELKTHANQANILKHYKITSQELGISSLGDAIVCRIAARDAL")
"soluble"

---

Experiment: soluble on expression in E. coli; label from the status in PepcDB or PDB records
Property Label: soluble on expression in E. coli

>>> test_result("MGSDKIHHHHHHMFYFTVNNPQDPLSTEIVETNRRDLAFWHRLRPKDDDDLATAINKICVRTGLSRKLIAACLFSICFLPYLPNFHKLVEKLGHLDMARINAITKAGEKVPSEKRELFDAYLVDYLTPRAEAQCLPQASSISAMMRKFIAQHCPDDKASSATNDGSIRYRRNNKGGISITVDATASEVTEIKAALEQMSKDKDCTPGTSLLHIIRGLPTKVVLNTYGTKDSPEYLEGGTWLSKEQSEFWKTRTTSSRDMDAAHFSYTTAYAPTREMRVYIKGLRTTCSVPGCSVAVENCQLDHIIPWGEGGPTTPWNIHPLCVFHHIQKTEGRLQCYPLPDGTVLFLVDGIPVFSIPDGPLSKSNKTWGTKFGKYMERRIAA")
"not soluble"
>>> test_result("MNKKELIDILLYDVALEHSAIIQYLYNVFLIGDPEITNEIESIARQEMRHLKWFAQKVVELGGKVTLNRIEEAIKVGQSWEEMLKNDVDAEEEAIKIYSQQLEIVKDDSVKKLLDRVINDEMRHRDEFSEMLEELKNKKIEEAKQEAGIDSEIFNILNKLLQKEYRLILDYLYHFFHSKTWQEKDTSLDIAIESMFHMGELGEKIGELGGYPDLSLPKAKHFKGFTPEEVIEDIKEEETASRMYEENAKKVTREDLVKLFKWFEKQEDYHAQRLKELFRKMNRFTIGGLGEES")
"not soluble"

---

Assay: soluble on expression in E. coli; label from the status in PepcDB or PDB records
Property Label: soluble on expression in E. coli

>>> test_result("MLEIVSEELRHYQEQKLIEYRNKNQLAPKGGIVFAGDSLIEFFPLKKAFGSCLPIINRGIAGIDSQWLLRHFSVQITDLEPKHIFLLIGCNDIGLGYDKCHIVKTIVELISQIRSHCVYSQIYLLSLLPVSNNPRYQKTVKIRTNAMIDAINKDLAMIPTVEFINLNTCLKDEKGGLSDENTLDGLHLNFPAYAKLAEIIKSYI")
"not soluble"
>>> test_result("MERSLYSPDLRIPPANIHNNHLKIDTDRKIRFAITHPEIKKAKGTIVILESYANALEEYFLPMNEISNRGFYTAIFDWFGREESQPDKQKQSRYNYFNINNDINDLNEFLKNIVYCNCPPPYYMLTYGMGGLIALSGLDLINHKFNKMLCISPLFAPFGNKTNSFQHKLTQLLSDIGLGFLPAKGGEKLKQKSTQFMRINEAALSSDFLIKRPTSRWMASVLNAIDSVKKNILNGHLEIPTLFILANQNNIANNIEIRQLCQYTHLTDSITITGAELDTIMHEESYQKQFWIAFDAFIRG")
"not soluble"
>>> test_result("TDVDAFTLGEDLAYTPGDVIYQNDLIQLIQYKASTKKVNEVPLLFIPPFINKYYVLDMDEQKSLIKWAVGQGHTVFVISWINPDKTLSHKGFNDYMKEGPIASLDVIEELTKSKKVNVVGYCIGGTLLATTQSYLLAKGDTRINSLTFLTTLLDFEEPGEIGVYLSEKMLPFLKKDIKEKGLLDGRVLGLAFSMLRENSLFWSYFVNNYLKGKDPAPFDILYWNSDSSNLPAETFDFYMTNTYQENNLIKDGAVEVEGVPIELSKIDTPSYFLATIADHIVLWQASYKGAKALSGPTRFVLAGSGHL")
"not soluble"
>>> test_result("MALLRIFDAHCDALLKLWEDPAREYTDDPAIEANAVRLMEGGVRAQCFAIFVGPNIPFDQKFQVALQQAELFHEKILKKHPQFSFIERWDDLLTLDADQIGAILTLEGADPFGDDPTKLKTLYRLGVRSLGLTWNQANLCADGVGEPRGGGLTEWGKAVVSLNNEHHVLTDVSHLSERGFWDVIEYAQFPVATHSNAKAICKHRRNLTDAQLKALIEAGGFIGIVFHPHFLTGTDDASIDDVMKHIEHICSLGGQKHVGFGSNFDGIPCFVDGLEHAGRFQWFMDELLKRYDEELVRGFAWDNFLKATPISYVEGHHHHHH")
"soluble"
>>> test_result("MLHTTQLYQHVPETRWPIVYSPRYNITFMGLEKLHPFDAGKWGKVINFLKEEKLLSDSMLVEAREASEEDLLVVHTRRYLNELKWSFAVATITEIPPVIFLPNFLVQRKVLRPLRTQTGGTIMAGKLAVERGWAINVGGGFHHCSSDRGGGFCAYADITLAIKFLFERVEGISRATIIDLDAHQGNGHERDFMDDKRVYIMDVYNRHIYPGDRFAKQAIRRKVELEWGTEDDEYLDKVERNIKKSLQEHLPDVVVYNAGTDILEGDRLGGLSISPAGIVKRDELVFRMVRGRRVPILMVTSGGYQKRTARIIADSILNLFGLGLIGPESPSVSAQNSDTPLLPPAVP")
"soluble"

---

Test: soluble on expression in E. coli; label from the status in PepcDB or PDB records
Property Label: soluble on expression in E. coli

>>> test_result("MRKFIFILLLIISSFSFCSNEISVDKSVEESVTKDYDQDGKYSSYERALRNAQGSIYVTLPEKRGYWYTILDRIKAEEDELMPDEKARIRRK")
"not soluble"
>>> test_result("MKEIILLVFLSRKEQTNRSANIFSSVLKGFEAQTIVYSLSYQKFYSNRKNKHKDETILVTAIYRCRRNPHGMQLKQCSPSVGSGAKTRTSGRLRP")
"not soluble"
>>> test_result("MGSDKIHHHHHHMSLVCSVIFIHHAFNANILDKDYAFSDGEILMVDNAVRTHFEPYERHFKEIGFNENTIKKYLQCTNIQTVTVPVPAKFLRASNVPTGLLNEMIAYLNSEERNHHNFSELLLFSCLSIFAACKGFITLLTNGVLSVSGKVRNIVNMKLAHPWKLKDICDCLYISESLLKKKLKQEQTTFSQILLDARMQHAKNLIRVEGSVNKIAEQCGYASTSYFIYAFRKHFGNSPKRVSKEYRCQRHTGMNTGNTMSALAI")
"not soluble"
>>> test_result("MVLPGNCSTSAALCMQFLTQLASVAIDQAYQPPQQPAYNPHEKLFVSYRSVPPPGSSPSSAAVPIRFSSYSSVGSNIRGLNSPTLHPGSIEPPLTPGNYRLYSMRFCPYAQRVLIYLAKKNIPVEVVNVNPDRSPNWYLPKSPIGRVPALEINGKVVWESNVIVEYLDELFPTNTILPRDAYEKAHQKILVERLSPIMNALFEFYGSSNNPQAQRQNDMNVHSALRNSENLLRDTFYGGRQPGYADYLMWPFLERLQLLTMSPNSQFRYFPGLHYPKIGAYIARMQNQPEVLGFCKHDFFLKKTGEKIW")
"not soluble"
>>> test_result("AHHHHHHGSKKFRFFVSGMPGVGKTTLAKRIADEIKREGFKVGGIITQEIRSGARRSGFRVIALDTGEIGRLAYVGQGYPRLGRYVIDVESFEKVAIPAISRALREGDLIVIDEIGPMEFKSNEFLKALGLVLRSEKPLLATVHRRFVERYRPLGEYYWLTPENREAVFSEILVKIKELLRENENAGNKAQD")
"not soluble"
>>> test_result("GSSGGPNVPELILQLLQLEPEEDQVRARIVGCLQEPAKSRSDQPAPFSLLCRMADQTFISIVDWARRCMVFKELEVADQMTLLQNSWSELLVLDHIYRQVQYGKEDSILLVTGQEVELSTVAVQAGSLLHSLVLRAQELVLQLHALQLDRQEFVCLKFLILFSLDVKFLNNHSLVKDAQEKANAALLDYTLSHYPHSGDKFQQLLLSLVEVRALSMQAKEYLYHKHLGNEMPRNNLLIEMLQAKQT")
"soluble"
>>> test_result("GPGSMYSYNNIIEKNEPCKKDVIENLQLSLSPTGAVRQFRVDERVDVVVVEGFLSNDECDQLIAACEKVGYTFWRQKDPNAEGEEAGCCGEAEARAFRVVDTIEANFPTLSQVLSSRIEKVVKLDPKTFSPSMEGAEELFARDLEGTWVPQQLAQNLLFARYGAGGHFSPHIDGSTIVDINTRSLYTLLIYLNDCEAGGETVLFDGEQAEVLKRDAESGKYIGRRENRIGAVKPTKGTAAFFYYDVLHEGSPVGEGHSKYIIRGDFLYRRNPPILTAENDMKAFELYEKARVAESNGDVFAACEMFQRVRKLSKGVAELYQL")
"soluble"
